Reported normalized growth values follow for various compounds
PROTOCOL_NOTES: chemical genetic growth profiling, strain panel (AID 1159580);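 note: tested at 20 µM; growth read once vehicle control cultures reached saturation at 30 °C; 1 = growth at the plate median or of vehicle wells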
CONDITION_LABEL: S. cerevisiae deletion strains, growth OD, locus YIR030C, strain dcg1, stronger effect = lower value
In all, about 5,500 compounds went through this assay and about 2,000 (36%) were called active. Roughly 18% stayed inconclusive and do not appear here. The list shows a part of the results.
The response must contain the number and no unit.

Below: 5 compounds and their reported normalized growth.
>>> observed("Clc1cccc(Cl)c1NC1=NCCN1")
1.01
>>> observed("CCN(CC)C(=O)c1cccc(C)c1")
0.996
>>> observed("OC(Cn1cncn1)(Cn1cncn1)c1ccc(F)cc1F")
0.997
>>> observed("CC1(C)C2CC(=O)[C@]3(C)C(CC[C@@]4(C)[C@H](c5ccoc5)OC(=O)[C@H]5O[C@]543)[C@@]2(C)C=C[C@@H]1O (stereo partly specified)")
0.996
>>> observed("CC(=O)OC1CCC2(C)C(=CC=C3C2CCC2(C)C3CCC2C(C)/C=C/C(C)C(C)C)C1(C)C (stereo unspecified)")
1

Then this compound:
Entry "CC1(C)NC(=O)N(c2ccc([N+](=O)[O-])c(C(F)(F)F)c2)C1=O" has what normalized growth?
0.983

====

PROTOCOL_NOTES: chemical genetic growth profiling, strain panel (AID 1159580)
CONDITION_LABEL: S. cerevisiae deletion strains, growth OD, locus YOR070C, strain gyp1, stronger effect = lower value
Out of some 5,500 compounds screened, about 2,000 (36%) were called active. Not shown: some 18% with an inconclusive outcome. The list shows a part of the results.
METRIC_NAME: normalized growth
API note: the answer field is a bare number with no unit suffix.

>>> observed("O=C(O)CN1C(=O)c2cccc3cccc(c23)C1=O")
0.99

// query normalized growth value for entry CO[C@@]1(NC(=O)CSCC#N)C(=O)N2C(C(=O)O)=C(CSc3nnnn3C)CSC21 (stereo partly specified)
0.989

# input compound: "Cc1ccc(Cl)c(Nc2ccccc2C(=O)O)c1Cl" ; wanted: its normalized growth
0.864

Tell me the measured normalized growth of "COC(=O)C[C@H]1C(C)(C)C(=O)[C@@H]2CC3=C(CC[C@]4(C)C3=CC(=O)O[C@H]4c3ccoc3)[C@@]1(C)C2=O" , please.
0.979

Entry "Cc1c(Cl)cccc1Nc1ccccc1C(=O)O" : reported normalized growth = ?
0.802

Looking for the measured normalized growth of "CC(=O)Oc1c(C)cccc1C(=O)O" , can you help?
0.99

====

normalized growth overview
PROTOCOL_NOTES: chemical genetic growth profiling, strain panel (AID 1159580)
CONDITION_LABEL: S. cerevisiae deletion strains, growth OD, locus YCL029C, strain bik1, stronger effect = lower value
Out of some 5,500 compounds screened, about 2,000 (36%) were called active. Another 18% or so got no clear call; they are omitted. This is one part of the list.

Below are worked cases with known answers.
>>> observed("CC(C)C(C)/C=C/C(C)C1CCC2C3=CC=C4CC(O)CCC4(C)C3CCC21C (stereo not given)")
"0.996 (inactive)"
>>> observed("CO[C@@]1(NC(=O)CSCC#N)C(=O)N2C(C(=O)O)=C(CSc3nnnn3C)CSC21 (stereo not given in full)")
"1.03 (inactive)"

Need normalized growth, item "COC(=O)C[C@H]1C(C)(C)C(=O)[C@@H]2CC3=C(CC[C@]4(C)C3=CC(=O)O[C@H]4c3ccoc3)[C@@]1(C)C2=O"
1.02 (inactive)

# query: normalized growth of entry "Cn1c(=O)c2[nH]cnc2n(C)c1=O"
0.966 (inactive)

// query normalized growth value for entry "CC(C)NC[C@H](O)COc1cccc2ccccc12"
1.02 (inactive)

====

PROTOCOL_NOTES: chemical genetic growth profiling, strain panel (AID 1159580)
CONDITION_LABEL: S. cerevisiae deletion strains, growth OD, locus YCL011C, strain gbp2, stronger effect = lower value
Out of some 5,500 compounds screened, about 2,000 (36%) were called active. Not shown: some 18% with an inconclusive outcome. This is one part of the list.
Below, each of the compounds is paired with its reported normalized growth value.
Please give only the number in your answer, with no unit.

>>> observed("Cc1cccc(Nc2ccccc2C(=O)O)c1C")
0.922
>>> observed("CC(C)NCC(O)COc1cccc2ccccc12 (stereo unspecified)")
1.01
>>> observed("CC(=O)Oc1c(C)cccc1C(=O)O")
1.01

// returns reported normalized growth for input "CC(C)NC[C@H](O)COc1cccc2ccccc12"
0.993

I have this compound here, CC(C)COCC(CN(Cc1ccccc1)c1ccccc1)N1CCCC1 (stereo unspecified) , and I need its recorded normalized growth.
1.02

What measured normalized growth goes with "CC[N+](CC)(CC)CCOc1cccc(OCC[N+](CC)(CC)CC)c1OCC[N+](CC)(CC)CC" ?
1.02

====

PROTOCOL_NOTES: chemical genetic growth profiling, strain panel (AID 1159580);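 note: tested at 20 µM; growth read once vehicle control cultures reached saturation at 30 °C; 1 = growth at the plate median or of vehicle wells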
CONDITION_LABEL: S. cerevisiae deletion strains, growth OD, locus YFR010W, strain ubp6, stronger effect = lower value
Hit rate of the full screen: of about 5,500 compounds, about 2,000 (36%) were called active. About 18% were inconclusive and are not listed. The list shows a part of the results.
METRIC_NAME: normalized growth
// response body must contain only the number

As a guide, the following entries are already answered.
>>> observed("CC1=CC2C(CC1=O)C(C)=CCC2C(C)C (stereo unspecified)")
1
>>> observed("C=C1C(=O)O[C@@H]2C3O[C@]3(C)CC/C=C(\\C)CC[C@@H]12 (stereo partly specified)")
0.992
>>> observed("C#CCCCCCCCCCCCC(O)CC(O)COC(C)=O (stereo unspecified)")
1.03
>>> observed("CC(=O)OCC(OC(C)=O)C(OC(C)=O)C(OC(C)=O)C(OC(C)=O)C(COC(C)=O)OC(C)=O (stereo unspecified)")
0.989
>>> observed("COc1cc(-c2coc3cc(OC)c(OC)c(OC)c3c2=O)cc(OC)c1OC")
0.996

Requested read-out: normalized growth. Entry: "COc1cc2occ(-c3ccccc3)c(=O)c2c(OC)c1C"
0.991

====

Quick reference: normalized growth of the listed items.
PROTOCOL_NOTES: chemical genetic growth profiling, strain panel (AID 1159580);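 note: tested at 20 µM; growth read once vehicle control cultures reached saturation at 30 °C; 1 = growth at the plate median or of vehicle wells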
CONDITION_LABEL: S. cerevisiae deletion strains, growth OD, locus YPL204W, strain HRR25, stronger effect = lower value
Screen size: about 5,500 compounds; about 2,000 (36%) were called active. Not shown: some 18% with an inconclusive outcome. This is one part of the list.

Known normalized growth results, listed for orientation:
>>> observed("O=C(/C=C/Sc1nc2ccccc2s1)c1ccc(Cl)cc1")
"0.882 (inactive)"
>>> observed("O=C(Nc1ccc(Cl)cc1)OCCSc1nc2ccccc2s1")
"0.922 (inactive)"
>>> observed("FC(F)(F)c1ccnc(N2CCCN(C(=S)Nc3ccc(Cl)cc3Cl)CC2)n1")
"0.966 (inactive)"

Fill blank: measured normalized growth of the molecule "O=[N+]([O-])c1ccc(Sc2ssc(=S)c2-c2ccccc2)nc1" is ____.
0.422 (active)

Recorded normalized growth of "Cc1nc(-c2ccc(S(=O)(=O)Nc3ccc(Br)cc3Cl)s2)cs1" , please.
0.846 (inactive)

If you can, please state the reported normalized growth value of OC(CN1CCN(c2nc3ccc(Cl)cc3s2)CC1)Cn1ccc2ccccc21 (stereo unspecified) .
0.895 (inactive)

// query normalized growth value for entry "Cc1ccc(NS(=O)(=O)c2ccc(-c3csc(C)n3)s2)c(C)c1"
0.881 (inactive)

Which normalized growth reading was recorded for the molecule "Cc1cccc(NC(=S)NNC(=O)CSCc2cccc3ccccc23)c1" ?
0.914 (inactive)

Item under review: "OC(=Cc1nc2ccccc2nc1C=C(O)c1ccc(Cl)cc1)c1ccc(Cl)cc1" . Reported normalized growth?
0.89 (inactive)

Which normalized growth value is on record for O=[N+]([O-])c1ccc2oc(C(O)c3cccc(Cl)c3)cc2c1 (stereo unspecified) ?
0.954 (inactive)

What measured normalized growth goes with "Cc1c(C(=S)Nc2ccccc2)sc2ccccc12" ?
0.828 (inactive)

====

PROTOCOL_NOTES: chemical genetic growth profiling, strain panel (AID 1159580);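 note: tested at 20 µM; growth read once vehicle control cultures reached saturation at 30 °C; 1 = growth at the plate median or of vehicle wells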
CONDITION_LABEL: S. cerevisiae deletion strains, growth OD, locus YLR262C, strain YPT6
The whole screen tested about 5,500 compounds, of which about 2,000 (36%) were called active. Inconclusive results (about 18%) are left out. No stated cut-off is given here; in the data, active means normalized growth mostly below about 0.91 (no sharp cut-off); inconclusive means no clear call, values can overlap the other calls; inactive means mostly above about 0.92. Some of the results follow.
Bench note: report the call from Yes = active, No = inactive

Some solved entries appear below for comparison.
>>> assigned_label("COC(=O)C(C)c1ccc(C(=O)c2cccs2)cc1 (configuration not stated)")
"No"
>>> assigned_label("CC(=O)c1ccc(-c2cccs2)s1")
"No"
>>> assigned_label("Cc1onc(-c2c(Cl)cccc2Cl)c1C(=O)OCC(F)(F)F")
"No"
>>> assigned_label("Cc1onc(-c2ccccc2)c1NC(=O)Nc1c(Cl)cccc1Cl")
"Yes"

Could you kindly confirm the outcome this assay logged for O=C1CC2OCC=C3CN4CC[C@]56c7ccccc7N1C5[C@H]2[C@H]3CC46 (some centres not stated) ?
No

What outcome does the record of this test show for "CCN(CC)CCNC(=O)c1c(-c2c(Cl)cccc2Cl)noc1C" ?
No

Any idea what this test logged for CC(C(=O)O)c1ccc(C(=O)c2cccs2)cc1 (configuration not stated) ?
No
